assay: Solubility of compound in pH 2 0.01 M HCl by nephelometry
Assay type: physicochemical
result_type: solubility kinetic (µg/mL)
Answer in µg/mL, number only, no unit symbol.

Observe how each entry below is paired with its result.
N#Cc1ccc2[nH]c3c(c2c1)CN(S(=O)(=O)c1ccc(F)cc1)CC3	1.6
O=S(=O)(Cc1ccc(F)cc1)N1CCc2[nH]c3ccccc3c2C1	3.1
O=S(=O)(c1cccnc1)N1CCc2[nH]c3ccccc3c2C1	12.5

Lookup: Param item = `NC(=O)Cn1c2c(c3ccccc31)CN(S(=O)(=O)c1ccc(F)cc1)CC2` ; retrieve measured solubility kinetic.
Found: 3.1

Lookup: Param item = `O=S(=O)(c1ccc(F)cc1)N1CCc2[nH]c3ccc(F)cc3c2C1` ; retrieve measured solubility kinetic.
Found: 3.1

Lookup: Param item = `Cc1ccc(S(=O)(=O)N2CCc3[nH]c4ccccc4c3C2)cc1` ; retrieve measured solubility kinetic.
Found: 1.6

Lookup: Param item = `O=C(O)c1ccc(S(=O)(=O)N2CCc3[nH]c4ccccc4c3C2)cc1` ; retrieve measured solubility kinetic.
Found: 3.1

Lookup: Param item = `O=S(=O)(C1CCOCC1)N1CCc2[nH]c3ccccc3c2C1` ; retrieve measured solubility kinetic.
Found: 25

====

assay: Solubility of compound in pH 6.5 phosphate buffer by nephelometry
Format: physicochemical
Each entry below carries its reported solubility kinetic.
Answer in µg/mL, number only, no unit symbol.

Observe how each entry below is paired with its result.
O=S(=O)(Cc1ccc(F)cc1)N1CCc2[nH]c3ccccc3c2C1	1.6
O=C(c1ccc(F)cc1)N1CCc2[nH]c3ccccc3c2C1	6.3
O=S(=O)(c1ccc(F)cc1)N1CCc2[nH]c3ccc(F)cc3c2C1	1.6

Lookup: Param item = `NC(=O)Cn1c2c(c3ccccc31)CN(S(=O)(=O)c1ccc(F)cc1)CC2` ; retrieve measured solubility kinetic.
Found: 3.1

Lookup: Param item = `CS(=O)(=O)c1ccc(S(=O)(=O)N2CCc3[nH]c4ccccc4c3C2)cc1` ; retrieve measured solubility kinetic.
Found: 3.1

Lookup: Param item = `Cc1ccc(S(=O)(=O)N2CCc3[nH]c4ccccc4c3C2)cc1` ; retrieve measured solubility kinetic.
Found: 1.6

====

assay: Lipophilicity, log D of compound at pH 7.4 by gradient HPLC analysis
Format: physicochemical
condition_details: buffer
result_type: logD
Just the number, please.

O=C(O)c1ccc(S(=O)(=O)N2CCc3[nH]c4ccccc4c3C2)cc1	1.6
CS(=O)(=O)c1ccc(S(=O)(=O)N2CCc3[nH]c4ccccc4c3C2)cc1	3.4
O=S(=O)(c1ccc(F)cc1)N1CCc2c([nH]c3ccccc23)C1	4.1
O=S(=O)(c1ccc(F)cc1)N1CCc2[nH]c3ccccc3c2C1	4

Lookup: Param item = `NC(=O)c1ccc2[nH]c3c(c2c1)CN(S(=O)(=O)c1ccc(F)cc1)CC3` ; retrieve measured logD.
Found: 2.6

====

assay: Solubility of compound in pH 2 0.01 M HCl by nephelometry
Type: physicochemical
Each entry below carries its reported solubility kinetic.

Observe how each entry below is paired with its result.
CS(=O)(=O)c1ccc(S(=O)(=O)N2CCc3[nH]c4ccccc4c3C2)cc1	3.1 µg/mL
O=C1CCN(S(=O)(=O)c2ccc(F)cc2)CC(=O)c2ccccc2N1	50 µg/mL
O=S(=O)(c1ccc(F)cc1)N1CCc2[nH]c3ccccc3c2CC1	< 1.6 µg/mL
O=S(=O)(c1ccc(C(F)(F)F)cc1)N1CCc2[nH]c3ccccc3c2C1	< 1.6 µg/mL

Lookup: Param item = `O=C(c1ccc(F)cc1)N1CCc2[nH]c3ccccc3c2C1` ; retrieve measured solubility kinetic.
Found: 6.3 µg/mL

====

assay: Lipophilicity, log D of compound at pH 7.4 by gradient HPLC analysis
Type: physicochemical
condition_details: buffer
Criterion: logD meeting or surpassing 3. Met: rule met. Not met: rule not met.

O=S(=O)(c1ccc(Br)cc1)N1CCc2[nH]c3ccccc3c2C1	rule met
O=C(O)c1ccc2[nH]c3c(c2c1)CN(S(=O)(=O)c1ccc(F)cc1)CC3	rule not met
N#Cc1ccc2[nH]c3c(c2c1)CN(S(=O)(=O)c1ccc(F)cc1)CC3	rule met
O=S(=O)(c1ccccc1)N1CCc2[nH]c3ccccc3c2C1	rule met
O=S(=O)(Cc1ccc(F)cc1)N1CCc2[nH]c3ccccc3c2C1	rule met

Lookup: Confirm if logD reported for the compound `O=C(Nc1ccc(F)cc1)N1CCc2[nH]c3ccccc3c2C1` is 3 or above.
Found: rule met

Lookup: Confirm if logD reported for the compound `CS(=O)(=O)N1CCc2[nH]c3ccccc3c2C1` is 3 or above.
Found: rule not met

Lookup: Confirm if logD reported for the compound `O=S(=O)(c1ccc(F)cc1)N1CCc2[nH]c3ncccc3c2C1` is 3 or above.
Found: rule met

====

assay: Intrinsic clearance in human liver microsomes assessed per mg protein at 1 uM preincubated for 5 to 10 mins followed by NADPH-regenerating system addition and measured after 2 to 60 mins by LC-MS/MS analysis
Format: ADME, Microsome
condition_details: time 2-60 min
result_type: intrinsic clearance (µL/min)
Answer in µL/min, number only, no unit symbol.

Observe how each entry below is paired with its result.
O=S(=O)(Cc1ccc(F)cc1)N1CCc2[nH]c3ccccc3c2C1	135
Cc1ccc(S(=O)(=O)N2CCc3[nH]c4ccccc4c3C2)cc1	170

Lookup: Param item = `O=S(=O)(c1ccc(F)cc1)N1CCc2[nH]c3ccc(F)cc3c2C1` ; retrieve measured intrinsic clearance.
Found: 105

Lookup: Param item = `O=C(c1ccc(F)cc1)N1CCc2[nH]c3ccccc3c2C1` ; retrieve measured intrinsic clearance.
Found: 111

Lookup: Param item = `O=S(=O)(c1ccc(Br)cc1)N1CCc2[nH]c3ccccc3c2C1` ; retrieve measured intrinsic clearance.
Found: 102

Lookup: Param item = `O=S(=O)(c1ccc(F)cc1)N1CCc2[nH]c3ncccc3c2C1` ; retrieve measured intrinsic clearance.
Found: 62

Lookup: Param item = `O=S(=O)(c1ccccc1)N1CCc2[nH]c3ccccc3c2C1` ; retrieve measured intrinsic clearance.
Found: 250

Lookup: Param item = `O=C(c1ccc2[nH]c3c(c2c1)CN(S(=O)(=O)c1ccc(F)cc1)CC3)N1CCOCC1` ; retrieve measured intrinsic clearance.
Found: 89

====

assay: Cytotoxicity against rat L6 cells assessed as reduction in cell viability measured after 70 hrs by alamar blue reagent based fluorescence assay
Assay type: toxicity
result_type: IC50 at 70 h (µM)
Answer in µM, number only, no unit symbol.

Observe how each entry below is paired with its result.
O=C(Nc1ccc(F)cc1)N1CCc2[nH]c3ccccc3c2C1	85
O=C(c1ccc2[nH]c3c(c2c1)CN(S(=O)(=O)c1ccc(F)cc1)CC3)N1CCOCC1	130
NC(=O)Cn1c2c(c3ccccc31)CN(S(=O)(=O)c1ccc(F)cc1)CC2	150
O=S(=O)(c1ccc(Br)cc1)N1CCc2[nH]c3ccccc3c2C1	26

Lookup: Param item = `O=S(=O)(c1ccccc1)N1CCc2[nH]c3ccccc3c2C1` ; retrieve measured IC50 at 70 h.
Found: 100

Lookup: Param item = `N#Cc1ccc2[nH]c3c(c2c1)CN(S(=O)(=O)c1ccc(F)cc1)CC3` ; retrieve measured IC50 at 70 h.
Found: 33

Lookup: Param item = `O=S(=O)(c1ccc(F)cc1)N1CCc2[nH]c3ccc(F)cc3c2C1` ; retrieve measured IC50 at 70 h.
Found: 150

Lookup: Param item = `O=S(=O)(c1ccc(F)cc1)N1CCc2c([nH]c3ccccc23)C1` ; retrieve measured IC50 at 70 h.
Found: 53

Lookup: Param item = `O=S(=O)(c1ccc(F)cc1)N1CCc2[nH]c3ccccc3c2CC1` ; retrieve measured IC50 at 70 h.
Found: 83

Lookup: Param item = `O=S(=O)(Cc1ccc(F)cc1)N1CCc2[nH]c3ccccc3c2C1` ; retrieve measured IC50 at 70 h.
Found: 56

Lookup: Param item = `O=S(=O)(c1ccc(F)cc1)N1CCc2[nH]c3ccccc3c2C1` ; retrieve measured IC50 at 70 h.
Found: 52

Lookup: Param item = `O=S(=O)(c1ccc(Cl)cc1)N1CCc2[nH]c3ccccc3c2C1` ; retrieve measured IC50 at 70 h.
Found: 53

Lookup: Param item = `O=S(=O)(c1cccnc1)N1CCc2[nH]c3ccccc3c2C1` ; retrieve measured IC50 at 70 h.
Found: 110

====

Each entry below carries its reported intrinsic clearance (CLint).
assay: Intrinsic clearance in mouse liver microsomes assessed per mg protein at 1 uM preincubated for 5 to 10 mins followed by NADPH-regenerating system addition and measured after 2 to 60 mins by LC-MS/MS analysis
Assay type: ADME, Microsome
condition_details: time 2-60 min

Observe how each entry below is paired with its result.
O=S(=O)(c1cccnc1)N1CCc2[nH]c3ccccc3c2C1	561 µL/min
O=S(=O)(c1ccc(F)cc1)N1CCc2[nH]c3ccc(F)cc3c2C1	> 866 µL/min

Lookup: Param item = `O=S(=O)(c1ccccc1)N1CCc2[nH]c3ccccc3c2C1` ; retrieve measured intrinsic clearance (CLint).
Found: > 866 µL/min
